Assay: Clinical study of the effect of food and antacid on pharmacokinetics after a single oral 40 mg tablet in healthy subjects
Format: in vivo, human
Details: both sexes, human, plasma, po, 40 mg, 2 hours after food; single 40 mg oral tablet; mean, n = 9
Experimental: and or the bisulfate salt thereof in healthy subjects was studied in a clinical trial. The primary objective of the study was to evaluate the effect of food (standardized high-fat breakfast) and antacid (increased gastric pH) on the pharmacokinetics (PK) of and or the bisulfate salt thereof administered orally as a 40 mg tablet. A secondary objective was to evaluate the effect of meal timing relative to fasting on the PK of […]
PROPERTY_NAME: half-life (days)
Write down the numeric answer in days and omit the unit.

Challenge: Item "CCOC(=O)N[C@@H]1CC[C@@H]2[C@@H](C1)C[C@H]1C(=O)O[C@H](C)[C@H]1[C@H]2/C=C/c1ccc(-c2cccc(F)c2)cn1" has what recorded half-life?
Response given: 10.1
